Values compiled from patent US20250320305A1.

Reported EC50 values for a set of binders
systemTested: T1, human CD40 expressed on cells (human, UniProt P25942 21-277)
T1 construct: also called huCD40; Raji cells
assayDetails: flow cytometry, Raji cells;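 also: cell binding of antibodies to Raji cells detected by flow cytometry using an Alexa488-labelled anti-human IgG secondary antibody, primary incubation 1 h at 4 °C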
Your answer is read as µg/mL, so omit the unit and give the number.

The examples below pair each entry with its known result.
P1AE1004, humanized anti-CD40 antibody VH1b/VL1c, huIgG1_LALA_PG (antibody, V domains shown, huIgG1 with effector silent Fc (P329G, L234A, L235A)) VH: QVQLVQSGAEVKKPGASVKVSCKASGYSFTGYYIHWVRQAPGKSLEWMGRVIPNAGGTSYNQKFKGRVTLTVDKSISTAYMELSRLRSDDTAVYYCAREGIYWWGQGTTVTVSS VL: DVVVTQTPLSLSVTPGQPASISCRSSQSLVHSNGNTFLHWYLQKPGQSPQLLIYTVSNRFSGVPDRFSGSGSGTDFTLKISRVEAEDVGVYFCSQTTHVPWTFGGGTKVEIK: 0.14
P1AE1002, humanized anti-CD40 antibody VH1b/VL1a, huIgG1_LALA_PG (antibody, V domains shown, huIgG1 with effector silent Fc (P329G, L234A, L235A)) VH: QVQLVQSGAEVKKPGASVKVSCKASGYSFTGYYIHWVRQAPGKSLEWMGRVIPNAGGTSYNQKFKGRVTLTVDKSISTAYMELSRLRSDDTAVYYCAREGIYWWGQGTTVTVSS VL: DIVMTQTPLSLSVTPGQPASISCRSSQSLVHSNGNTFLHWYLQKPGQSPQLLIYTVSNRFSGVPDRFSGSGSGTDFTLKISRVEAEDVGVYFCSQTTHVPWTFGGGTKVEIK: 0.13
P1AE0993, humanized anti-CD40 antibody VH1a/VL1c, huIgG1_LALA_PG (antibody, V domains shown, huIgG1 with effector silent Fc (P329G, L234A, L235A)) VH: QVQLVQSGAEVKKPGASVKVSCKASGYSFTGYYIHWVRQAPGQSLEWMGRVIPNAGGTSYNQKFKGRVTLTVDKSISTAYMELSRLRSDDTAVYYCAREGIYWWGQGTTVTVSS VL: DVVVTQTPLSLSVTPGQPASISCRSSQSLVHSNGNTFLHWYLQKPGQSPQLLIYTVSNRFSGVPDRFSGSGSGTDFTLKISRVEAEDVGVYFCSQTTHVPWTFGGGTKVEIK: 0.13
P1AE0401, humanized anti-CD40 antibody VH2b/VL2a, huIgG1_LALA_PG (antibody, V domains shown, huIgG1 with effector silent Fc (P329G, L234A, L235A); also called VL2a/VH2b) VH: EVQLLESGGGLVQPGGSLRLSCAASGYSFTGYYIHWVRQAPGKSLEWVGRVIPNAGGTSYNQKFKGRFTISVDNSKNTAYLQMNSLRAEDTAVYYCAREGIYWWGQGTTVTVSS VL: DIQMTQSPSSLSASVGDRVTITCRSSQSLVHSNGNTFLHWYQQKPGKAPKLLIYTVSNRFSGVPSRFSGSGSGTDFTLTISSLQPEDFATYFCSQTTHVPWTFGGGTKVEIK: 0.13

In plain terms, P1AE0818, humanized anti-CD40 antibody VH1c/VL1c, huIgG1_LALA_PG (antibody, V domains shown, huIgG1 with effector silent Fc (P329G, L234A, L235A)) VH: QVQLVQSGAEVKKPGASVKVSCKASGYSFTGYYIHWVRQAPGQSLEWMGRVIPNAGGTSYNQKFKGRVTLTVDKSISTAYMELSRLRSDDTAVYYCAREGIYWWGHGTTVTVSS VL: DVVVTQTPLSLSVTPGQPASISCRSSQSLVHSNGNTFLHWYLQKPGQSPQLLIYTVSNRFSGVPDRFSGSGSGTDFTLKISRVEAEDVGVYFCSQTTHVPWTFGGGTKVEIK has a documented EC50 of 0.14
